Ref: PubChem BioAssay AID1159564

tested on: L. donovani-infected THP-1 macrophages, intracellular amastigote imaging; experiment: antileishmanial activity in infected THP-1 macrophages – imaging, THP-1 host macrophages, host toxicity (AID 1159564); details: measured here: THP-1 host cell toxicity
For each record, check the reported IC50: if it is below 30 µM write Criterion met, else write Criterion not met.

Please review the following examples before continuing.
# compound, class-assignment
records = [
    ("O=c1ccn(-c2ccc([N+](=O)[O-])cc2Cl)c2ccc(F)cc12", "Criterion not met"),
    ("Cc1c([N+](=O)[O-])c(C(=O)Nc2sc3c(c2C#N)CCC(C)C3)nn1C (configuration not stated)", "Criterion not met"),
    ("CC(C(=O)Nc1ccccc1F)N(C)CC(=O)Nc1cccc2ccccc12 (configuration not stated)", "Criterion not met"),
    ("Cc1nc(-c2ccc3c(c2)OCO3)sc1C(=O)NCc1ccc2c(c1)OCO2", "Criterion not met"),
    ("CC(Cn1ccnc1)NC(=O)C1CC1c1cccc(Cl)c1Cl (configuration not stated)", "Criterion not met"),
    ("Cn1nc(C(=O)N2CCc3ccccc32)c2c1CCS(=O)(=O)C2", "Criterion not met"),
    ("COc1cc(Nc2nccc(Nc3onc(C)c3C)n2)cc(S(=O)(=O)C2CCOCC2)c1", "Criterion not met"),
    ("O=C(Nc1ccc(C(F)(F)F)cc1)NC1(C(=O)NCc2ccco2)CCCCC1", "Criterion not met"),
]

Lab note: IC50 threshold 30 µM. Does this compound come in strictly under it? c1ccc(-c2nc(NCc3ccco3)c3ccccc3n2)nc1 Criterion not met

Lab note: IC50 threshold 30 µM. Does this compound come in strictly under it? COc1ccc(C(=O)N2CCC(Nc3cccnc3)C2)c(OC)n1 (configuration not stated) Criterion not met

Lab note: IC50 threshold 30 µM. Does this compound come in strictly under it? O=C(NCCc1nc(-c2ccc(F)c(F)c2)n[nH]1)C1CCCCC1 Criterion met

Lab note: IC50 threshold 30 µM. Does this compound come in strictly under it? CC(C)(C)c1cc(NC2CC2)nc(-c2ccccn2)n1 Criterion met

Lab note: IC50 threshold 30 µM. Does this compound come in strictly under it? O=C(Nc1nc2ccccc2[nH]1)c1ccc2nc[nH]c2c1 Criterion not met

Lab note: IC50 threshold 30 µM. Does this compound come in strictly under it? CC(C)C[C@H](NC(=O)c1ccc(-c2ccccc2)o1)C(=O)NC1(C#N)CC1 Criterion not met

Lab note: IC50 threshold 30 µM. Does this compound come in strictly under it? O=C(Nc1cccc(S(=O)(=O)Nc2ccc(Br)cc2)c1)c1ccc([N+](=O)[O-])s1 Criterion met

Lab note: IC50 threshold 30 µM. Does this compound come in strictly under it? CN(C)Cc1ccc(-c2ccc(S(=O)(=O)NCC3CCCO3)c(F)c2)cc1 (configuration not stated) Criterion not met

Lab note: IC50 threshold 30 µM. Does this compound come in strictly under it? O=C(NCc1nnc2n1CCCCC2)c1ccc(-c2ccc(F)cc2)o1 Criterion not met

* * *

tested on: L. donovani-infected THP-1 macrophages, intracellular amastigote imaging; assay: antileishmanial activity in infected THP-1 macrophages – imaging, THP-1 host macrophages, host toxicity (AID 1159564); settings: measured here: THP-1 host cell toxicity
observed-property: IC50

The cases that follow already have their IC50 on record.
# smiles-code, measurement-target, IC50
data = [
    ("CCCCn1c(=O)c2c(N)onc2n(CCCC)c1=O", "L. donovani-infected THP-1 macrophages, intracellular amastigote imaging", "> 50 µM"),
    ("COc1cnc2ccc(=O)n(CCN3CCC(NC(=O)c4ccc(Cl)cc4)CC3)c2c1", "L. donovani-infected THP-1 macrophages, intracellular amastigote imaging", "> 50 µM"),
]

Turning now to a further compound:
Find IC50 (L. donovani-infected THP-1 macrophages, intracellular amastigote imaging) for the entry COc1ccc(C(=O)NC2CCN(CCn3c(=O)ccc4ncc(F)cc43)CC2)cc1Cl > 50 µM

* * *

system: L. donovani-infected THP-1 macrophages, intracellular amastigote imaging; test: antileishmanial activity in infected THP-1 macrophages – imaging, THP-1 host macrophages, host toxicity (AID 1159564); conditions: measured here: THP-1 host cell toxicity
observed-property: IC50

# compound, observed-property, test-value
rows = [
    ("COc1cccc(-c2c(C)nn(-c3nc(N)nc(-c4ccccn4)n3)c2N)c1", "IC50", "> 50 µM"),
    ("N#Cc1ccc(S(=O)(=O)N2CCC3(CCN(c4ccccc4)C3=O)CC2)cc1", "IC50", "> 50 µM"),
    ("Cc1cc(Br)cc(C(=O)c2c(C(C)C)c(=O)[nH]c(=O)n2Cc2ccnc(N)c2)c1", "IC50", "40 µM"),
]

IC50 for CCOc1cnn(C)c(=O)c1Nc1ccc(C(=O)NCc2ccc(F)cc2)cc1 ? 32 µM

IC50 for O=C(CN(Cc1ccccn1)Cc1ccccn1)NCc1ccc2c(c1)OCO2 ? > 79 µM

IC50 for CC(Cn1ccnc1)NC(=O)COc1ccc(Cl)c(Cl)c1 (stereo not given) ? > 50 µM

IC50 for Cc1nc2nc(C)c(Cc3ccc(C(C)C)cc3)c(=O)n2[nH]1 ? > 50 µM

IC50 for CC(C)(C)CC(=O)NCc1noc(COc2ccccc2)n1 ? > 50 µM

IC50 for Cc1nc2c(-c3n[nH]c(-c4ccccc4N)n3)cccn2c1C ? 7.9 µM

IC50 for O=C(Nc1nc(-c2ccc(S(=O)(=O)N3CCOCC3)cc2)cs1)c1ccc([N+](=O)[O-])cc1 ? 4 µM

IC50 for CC(CNS(=O)(=O)c1ccc(OC(F)F)cc1)c1ccc(NC(=O)c2ccncc2)cc1 (stereo not given) ? 16 µM

IC50 for O=C(Nc1nc(-c2ccccn2)cs1)C1CCc2ccccc2C1 (stereo not given) ? 7.9 µM

* * *

In this section, each of the compounds is paired with its reported pIC50.
system: L. donovani-infected THP-1 macrophages, intracellular amastigote imaging; assay: antileishmanial activity in infected THP-1 macrophages – imaging, THP-1 host macrophages, host toxicity (AID 1159564); details: measured here: THP-1 host cell toxicity
pIC50: −log10 of the molar value.

The cases that follow already have their pIC50 on record.
# smiles-code, test-value
rows = [
    ("CC(C)Oc1cccc(N2CCC(C(=O)N3CCCN(C(C)C)CC3)CC2)c1", "< 4.30"),
    ("O=C(Nc1ccc(C(F)(F)F)cc1)Nc1cccc([N+](=O)[O-])c1", 5.20),
    ("O=C(NCCc1cccnc1)c1csc(-c2ccccc2)n1", "< 4.30"),
]

Turning now to a further compound:
pIC50 for CC(C)(C)c1csc(NC(=O)c2ccc([N+](=O)[O-])s2)n1 ? < 4.30

* * *

tested on: L. donovani-infected THP-1 macrophages, intracellular amastigote imaging; test: antileishmanial activity in infected THP-1 macrophages – imaging, THP-1 host macrophages, host toxicity (AID 1159564); details: measured here: THP-1 host cell toxicity
In this section, each of the compounds is paired with its reported IC50.

# smiles-code, IC50
records = [
    ("Fc1ccccc1N1C[C@H]2CCN(c3cccnc3)C[C@H]2C1", "> 50 µM"),
    ("Cc1cc(C)c(C#N)c(SCC(=O)c2ccc3c(c2)OCO3)n1", "> 50 µM"),
]

Turning now to a further compound:
IC50 for CC(C)C[C@H](NC(=O)c1csc(-c2cccs2)n1)C(=O)NC1(C#N)CC1 ? > 50 µM

* * *

In this section, each of the compounds is paired with its reported pIC50.
test system: L. donovani-infected THP-1 macrophages, intracellular amastigote imaging; assay: antileishmanial activity in infected THP-1 macrophages – imaging, THP-1 host macrophages, host toxicity (AID 1159564); conditions: measured here: THP-1 host cell toxicity
pIC50: −log10 of the molar value.

The cases that follow already have their pIC50 on record.
# compound, measurement-target, pIC50
rows = [
    ("Clc1ccc(Sc2cnccc2N2CCOCC2)cc1", "L. donovani-infected THP-1 macrophages, intracellular amastigote imaging", "< 4.30"),
    ("Cc1ccc(C)c(-n2nnnc2Sc2nc([N+](=O)[O-])nn2C)c1", "L. donovani-infected THP-1 macrophages, intracellular amastigote imaging", "< 4.30"),
    ("Cc1cccc(Nc2nc(-c3ccccn3)cs2)n1", "L. donovani-infected THP-1 macrophages, intracellular amastigote imaging", "< 4.30"),
    ("CS(=O)(=O)c1cccc(-c2cnc(N)c3c(-c4ccc(CO)cc4)csc23)c1", "L. donovani-infected THP-1 macrophages, intracellular amastigote imaging", "< 4.30"),
    ("COc1ccc(-c2cnc(NC(=O)c3ccc(F)cc3)n2C)cc1", "L. donovani-infected THP-1 macrophages, intracellular amastigote imaging", "< 4.30"),
]

pIC50 for O=C(CN1CCC2(O)CCCCC2C1c1ccc2c(c1)OCO2)Nc1ccc(Cl)cc1Cl (configuration not stated) ? < 4.30

pIC50 for COc1ccc(-c2cc(C)no2)cc1S(=O)(=O)Nc1ccc(C)c(C)c1 ? < 4.30

pIC50 for Cc1[nH]n2c(=O)c3c(nc2c1-c1ccc(F)cc1)CCCC3 ? < 4.30

pIC50 for Cn1ccnc1CN1CCc2[nH]cnc2C1c1ccccc1OCc1ccccc1 (configuration not stated) ? < 4.30
